Answer each item with its documented Signal to Background Ratios.
# protocol notes: Light generation from compounds following incubation with hydrogen peroxide in different pH solutions (D-cysteine conversion, LDR)
# Type: biochemical
# applied conditions: pH 8.8; signal with peroxide to background no peroxide
Give bare numbers.

The cases that follow already have their Signal to Background Ratios on record.
[
  {
    "molecule": "N#Cc1nc2ccc(OCc3ccc(B(O)O)cc3)cc2s1 [PBI 4452]",
    "observation type": "Signal to Background Ratios",
    "value": 4.4
  },
  {
    "molecule": "O=C(O)C1CSC(c2nc3ccc(OCc4ccc(B(O)O)cc4)cc3s2)=N1 (stereo not drawn) [PBI 3048]",
    "observation type": "Signal to Background Ratios",
    "value": 4.5
  },
  {
    "molecule": "CC1(C)OB(c2ccc(COc3ccc4nc(C#N)sc4c3)cc2)OC1(C)C [PBI 4472]",
    "observation type": "Signal to Background Ratios",
    "value": 31.6
  },
  {
    "molecule": "N#Cc1nc2ccc(OCc3ccc(B(O)O)c(Cl)c3)cc2s1 [PBI 4470]",
    "observation type": "Signal to Background Ratios",
    "value": 3.3
  },
  {
    "molecule": "CC1(C)OB(c2ccc(COc3ccc4nc(C#N)sc4c3)cc2F)OC1(C)C [PBI 4481]",
    "observation type": "Signal to Background Ratios",
    "value": 21.1
  }
]

Shifting focus to the molecule that follows.
Give the measured Signal to Background Ratios of CC1(C)OB(c2ccc(COc3ccc4nc(C#N)sc4c3)c3ccccc23)OC1(C)C [PBI 4480] .
8.7
